Where do the numbers come from? From ChEMBL document CHEMBL1961873.

Target: Serine/threonine-protein kinase 26 (Homo sapiens) (UniProt Q9P289)
Sequence (Q9P289 2-416 limits assumed): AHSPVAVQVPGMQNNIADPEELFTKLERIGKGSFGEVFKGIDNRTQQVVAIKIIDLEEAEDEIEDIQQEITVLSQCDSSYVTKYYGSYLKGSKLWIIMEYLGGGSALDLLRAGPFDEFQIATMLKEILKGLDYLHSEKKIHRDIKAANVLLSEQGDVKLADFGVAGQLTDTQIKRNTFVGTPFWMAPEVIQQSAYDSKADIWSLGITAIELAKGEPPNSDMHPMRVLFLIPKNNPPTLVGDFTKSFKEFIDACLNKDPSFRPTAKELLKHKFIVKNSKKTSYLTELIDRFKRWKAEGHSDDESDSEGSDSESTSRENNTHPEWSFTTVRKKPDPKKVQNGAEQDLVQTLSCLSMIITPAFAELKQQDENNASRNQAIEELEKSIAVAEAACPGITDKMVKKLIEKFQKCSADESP
Conditions: at 0.1 µM
Description: GSK_PKIS: MST4 mean inhibition at 0.1 uM [Nanosyn]
So I've got a bunch of compounds here, and I need their inhibition values.
Just the number please, in %, no unit attached.

Form field inhibition for item COc1ccc(-c2nn3ncccc3c2-c2ccnc(Nc3ccc4c(c3)OCCO4)n2)cc1 on Serine/threonine-protein kinase 26 (Homo sapiens) (UniProt Q9P289): 0.86

// compound NC(=O)c1sc(-n2cnc3ccc(C(F)(F)F)cc32)cc1OCc1ccccc1Br , assay Serine/threonine-protein kinase 26 (Homo sapiens) (UniProt Q9P289), inhibition value: -0.65

The reported inhibition value, Serine/threonine-protein kinase 26 (Homo sapiens) (UniProt Q9P289), for CCc1nn2ncccc2c1-c1ccnc(NC2CC2)n1 reads -1.35

inhibition on Serine/threonine-protein kinase 26 (Homo sapiens) (UniProt Q9P289) for CCOc1ccc2c(-c3ccnc(Nc4cccc(C(F)(F)F)c4)n3)cnn2n1 is 0.02

Param item: COC(=O)c1sc(-n2cnc3cc(OC)c(OC)cc32)cc1OCc1ccccc1C(F)(F)F ; param system: Serine/threonine-protein kinase 26 (Homo sapiens) (UniProt Q9P289); output inhibition: -1.48

* * *

Biological target: Tyrosine-protein kinase Yes (Homo sapiens);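 also: values are mean percent inhibition of YES kinase activity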
Conditions: at 1 µM
For each entry below, report its inhibition value.
Express the reported value numerically, then name its unit.

# inhibition measured on Tyrosine-protein kinase Yes (Homo sapiens) for item N#Cc1c(NC(=O)c2ccc(F)cc2)sc2c1CCCC2 = 4.07%

Item: NC(=O)c1sc(-n2cnc3ccc(C(F)(F)F)cc32)cc1OCc1ccccc1Br | System: Tyrosine-protein kinase Yes (Homo sapiens) | inhibition: 6.95%

Form field inhibition for item CCCN1CCC(c2ccc(Nc3nc(Nc4cc(F)ccc4C(N)=O)c4cc[nH]c4n3)c(OC)c2)CC1 on Tyrosine-protein kinase Yes (Homo sapiens): 19.3%

// inhibition (Tyrosine-protein kinase Yes (Homo sapiens)) for c1ccc(COc2ccc(Nc3ncnc4ccc(-c5ccco5)cc34)cc2)cc1 = 13.1%

# COc1cccc(-n2ncc3c(N/N=C/c4ccc(F)cc4)ncnc32)c1 with Tyrosine-protein kinase Yes (Homo sapiens): inhibition is 25.1%

Hey, Tyrosine-protein kinase Yes (Homo sapiens) data for COc1ccc(-c2cc3c(N)ncnc3o2)cc1 : inhibition came out at 6.69%

Reported Tyrosine-protein kinase Yes (Homo sapiens) inhibition for item O=C(Nc1n[nH]c2cc(-c3ccc(F)cc3)ccc12)C1CC1 was 6.64%

The value of inhibition recorded for CC(=O)NCc1cccc(C#Cc2cncnc2Nc2ccc(OCc3cccc(F)c3)c(Cl)c2)c1 when tested on Tyrosine-protein kinase Yes (Homo sapiens) reads 6.04%

The compound COc1ccc(-c2oc3ncnc(N)c3c2-c2ccc(NC(=O)Nc3cc(C(F)(F)F)ccc3F)cc2)cc1 , tested on Tyrosine-protein kinase Yes (Homo sapiens), showed inhibition of 80.1%

Entry CCN(CC)S(=O)(=O)c1ccc(OC)c(Nc2ncc(-c3ccccc3)o2)c1 : inhibition on Tyrosine-protein kinase Yes (Homo sapiens) = 58.6%

CS(=O)(=O)CCNCc1coc(-c2ccc3ncnc(Nc4ccc(OCc5ccccc5)cc4)c3c2)c1 tested on Tyrosine-protein kinase Yes (Homo sapiens) gave inhibition: 26.2%

Recorded inhibition for NS(=O)(=O)c1ccc(N/N=C2\C(=O)Nc3ccc4ncccc4c32)cc1 on Tyrosine-protein kinase Yes (Homo sapiens) was 48.2%

// returns inhibition for CCn1c(-c2nonc2N)nc2ccccc21 with Tyrosine-protein kinase Yes (Homo sapiens); value = -1.08%

Reported inhibition (Tyrosine-protein kinase Yes (Homo sapiens)) for entry CC(C)COC(=O)c1ccc2c(c1)/C(=C/Nc1ccc(S(N)(=O)=O)cc1)C(=O)N2 is 22.1%

Item: O=S(=O)(CCNCc1ccc(-c2ccc3ncnc(Nc4ccc(OCc5cccc(F)c5)c(Cl)c4)c3c2)o1)c1ccccc1 | System: Tyrosine-protein kinase Yes (Homo sapiens) | inhibition: 7.66%

Query Cc1cccc2c1NC(=O)/C2=N\Nc1ccc(S(N)(=O)=O)cc1 on Tyrosine-protein kinase Yes (Homo sapiens); inhibition returned: -0.24%

Readout inhibition for c1ccc(-c2nc3n(c2-c2ccc4c(c2)OCO4)CCC3)nc1 , test system Tyrosine-protein kinase Yes (Homo sapiens), was 3.94%

Field inhibition (system: Tyrosine-protein kinase Yes (Homo sapiens)) for entry CNC(=O)c1cncc(/C=C/c2ccccc2Cl)c1 = 7.95%

Summary: Nc1ncc(-c2cccc(S(N)(=O)=O)c2)c2scc(-c3ccc(F)c(Cl)c3)c12 , Tyrosine-protein kinase Yes (Homo sapiens), inhibition = 56.4%

Field inhibition (system: Tyrosine-protein kinase Yes (Homo sapiens)) for entry CN1CCC(n2cnc(-c3ccc(F)cc3)c2-c2ccnc(N)n2)CC1 = 13.4%

The recorded inhibition with Tyrosine-protein kinase Yes (Homo sapiens) for N#Cc1c(NC(=O)CN2CCOCC2)sc2c1CCCC2 was 3.95%

Fill in: Tyrosine-protein kinase Yes (Homo sapiens) inhibition for COc1ccc(-c2nn3ncccc3c2-c2ccnc(Nc3ccc4c(c3)OCCO4)n2)cc1 = 95.8%

Here Clc1ccc(-c2nn3ncccc3c2-c2ccnc(Nc3ccccc3)n2)cc1 was tested on Tyrosine-protein kinase Yes (Homo sapiens), and its inhibition came to 89.5%

Fill in: Tyrosine-protein kinase Yes (Homo sapiens) inhibition for COc1ccc(-c2cc(-c3c[nH]nc3-c3ccccn3)ccn2)cc1 = 7.41%

Query CCn1c(-c2nonc2N)nc2c(C#CC(C)(C)O)ncc(OC3CCNCC3)c21 on Tyrosine-protein kinase Yes (Homo sapiens); inhibition returned: 5.89%

Measured inhibition for this entry COc1ccc2[nH]c3c4[nH]c5ccc(OC)cc5c4c4c(c3c2c1)C(=O)NC4=O on Tyrosine-protein kinase Yes (Homo sapiens): 33.5%

Summary: COC(=O)Nc1nc2ccc(Oc3ccc(NC(=O)Nc4cccc(Cl)c4)cc3)cc2[nH]1 , Tyrosine-protein kinase Yes (Homo sapiens), inhibition = 2.42%

Record CCOc1ccc2c(-c3ccnc(Nc4cccc(C(F)(F)F)c4)n3)cnn2n1 has Tyrosine-protein kinase Yes (Homo sapiens) inhibition equal to 3.08%

The compound Cc1cccc(Nc2ncc(-c3ccccc3)o2)c1 on Tyrosine-protein kinase Yes (Homo sapiens): inhibition was 11.3%

Kindly note: Tyrosine-protein kinase Yes (Homo sapiens), Cc1ccc2c(-c3ccnc(Nc4ccccc4)n3)c(-c3ccc(F)cc3)nn2n1 , inhibition value reported: 92.1%

Known value: Tyrosine-protein kinase Yes (Homo sapiens) inhibition of the compound CC(=O)Nc1cccc(C#Cc2cncnc2Nc2ccc(OCc3cccc(F)c3)c(Cl)c2)c1 equals 1.7%

Readout inhibition for CCc1nn2ncccc2c1-c1ccnc(NC2CC2)n1 , test system Tyrosine-protein kinase Yes (Homo sapiens), was 6.6%

The reported Tyrosine-protein kinase Yes (Homo sapiens) inhibition of CC(C)(CO)CNC(=O)c1ccc2c(c1)/C(=N/Nc1ccc(S(N)(=O)=O)cc1)C(=O)N2 is 16.9%

Result for CCNC(=O)O[C@H]1CN[C@H](C#Cc2cc3ncnc(Nc4ccc(OCc5cccc(F)c5)c(Cl)c4)c3s2)C1 , tested on Tyrosine-protein kinase Yes (Homo sapiens), inhibition: -0.6%

Considering O=C(O[C@H]1CN[C@H](C#Cc2cc3ncnc(Nc4ccc(Cc5ccccc5)cc4)c3s2)C1)N1CCOCC1 , its inhibition with Tyrosine-protein kinase Yes (Homo sapiens) was recorded as 38.8%

The observed inhibition for CCN1CCC(CC(=O)Nc2n[nH]c3nnc(-c4cccc(F)c4F)cc23)CC1 when tested with Tyrosine-protein kinase Yes (Homo sapiens) stands at 5.8%

// compound Fc1ccc(-c2nn3ccccc3c2-c2ccncc2)cc1 , assay Tyrosine-protein kinase Yes (Homo sapiens), inhibition value: 5.66%

Short answer on Tyrosine-protein kinase Yes (Homo sapiens) for CCn1c(-c2nonc2N)nc2cnc(Oc3cccc(NC(=O)c4ccc(N(C)C)cc4)c3)cc21 , inhibition: 2.45%

Noted inhibition for NS(=O)(=O)c1ccc(Nc2ncc(-c3ccccc3)o2)cc1 , tested on Tyrosine-protein kinase Yes (Homo sapiens): 7.73%

Result for CCCN(CCS(C)(=O)=O)Cc1ccc(-c2ccc3ncnc(Nc4ccc(OCc5cccc(F)c5)c(Cl)c4)c3c2)o1 , tested on Tyrosine-protein kinase Yes (Homo sapiens), inhibition: 8.75%

Fill in: Tyrosine-protein kinase Yes (Homo sapiens) inhibition for CCn1c(-c2nonc2N)nc2c(C#CC(C)(C)O)nc(OC[C@H](N)c3ccccc3)cc21 = 7.77%

* * *

Biological target: Phosphatidylinositol 4,5-bisphosphate 3-kinase catalytic subunit alpha isoform (Homo sapiens);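 also: values are mean inhibition figures from the GSK PKIS kinase panel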
Conditions: at 0.1 µM
Would you mind labelling by inhibition? At or over 4% is Condition met, under is Condition not met.

Is inhibition at least 4%? Consider O=S(=O)(CCNCc1ccc(-c2ccc3ncnc(Nc4ccc(OCc5cccc(F)c5)c(Cl)c4)c3c2)o1)c1ccccc1
Condition met

Hi team, for NS(=O)(=O)c1ccc(Nc2ncc(-c3ccccc3)o2)cc1 , is the recorded inhibition at or above 4%?
Condition not met

Test whether the compound O=C(Nc1n[nH]c2cc(-c3ccc(F)cc3)ccc12)C1CC1 records inhibition of 4% or higher.
Condition met

Identify whether the reported inhibition of the following compound is 4% or greater: c1cc(-c2cnn3nc(N4CCOCC4)ccc23)nc(NC2CC2)n1
Condition not met

Does inhibition meet or surpass 4% for CN1CCC(n2cnc(-c3ccc(F)cc3)c2-c2ccnc(N)n2)CC1 ?
Condition not met
